- TARGET OF ASSAY: recombinant HDAC4 (Homo sapiens, UniProt P56524)
- Sequence (P56524 whole entry): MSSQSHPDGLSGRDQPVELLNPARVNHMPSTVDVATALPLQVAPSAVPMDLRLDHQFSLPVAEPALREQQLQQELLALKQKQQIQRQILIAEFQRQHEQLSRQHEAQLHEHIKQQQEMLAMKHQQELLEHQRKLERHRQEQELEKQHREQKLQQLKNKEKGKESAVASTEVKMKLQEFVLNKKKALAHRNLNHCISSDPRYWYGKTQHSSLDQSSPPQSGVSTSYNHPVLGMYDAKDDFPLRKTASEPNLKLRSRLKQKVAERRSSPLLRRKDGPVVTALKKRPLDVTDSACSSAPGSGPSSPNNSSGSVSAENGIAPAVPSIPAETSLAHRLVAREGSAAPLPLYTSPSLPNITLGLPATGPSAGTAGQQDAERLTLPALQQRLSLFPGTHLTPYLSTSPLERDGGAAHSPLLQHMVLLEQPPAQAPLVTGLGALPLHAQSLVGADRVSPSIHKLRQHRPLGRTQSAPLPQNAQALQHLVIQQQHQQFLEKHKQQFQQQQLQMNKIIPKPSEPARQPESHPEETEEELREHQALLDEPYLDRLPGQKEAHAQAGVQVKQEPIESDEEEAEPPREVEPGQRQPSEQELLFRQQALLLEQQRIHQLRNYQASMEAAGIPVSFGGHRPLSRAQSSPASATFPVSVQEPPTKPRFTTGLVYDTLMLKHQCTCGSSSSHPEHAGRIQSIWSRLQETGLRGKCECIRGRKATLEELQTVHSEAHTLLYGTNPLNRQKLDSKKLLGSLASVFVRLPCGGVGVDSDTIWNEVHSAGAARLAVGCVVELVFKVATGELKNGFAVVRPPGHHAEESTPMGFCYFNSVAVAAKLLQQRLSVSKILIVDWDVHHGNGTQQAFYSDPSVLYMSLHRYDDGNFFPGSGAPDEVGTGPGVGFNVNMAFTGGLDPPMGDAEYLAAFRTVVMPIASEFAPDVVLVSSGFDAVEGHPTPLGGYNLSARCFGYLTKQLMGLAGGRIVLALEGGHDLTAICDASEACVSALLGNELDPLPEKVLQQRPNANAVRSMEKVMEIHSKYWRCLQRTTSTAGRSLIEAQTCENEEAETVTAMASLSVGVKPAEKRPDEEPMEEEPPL
- ASSAY PROCEDURE: Fluorogenic enzymatic assay, recombinant HDAC4
PARAMETER MEASURED: IC50 (µM)

COMPOUND	ENDPOINT UNIT	RECORDED NUMBER
C#CCN(CCCCCC(=O)NO)Cc1c(F)c(F)c(N=[N+]=[N-])c(F)c1F [photomate]	µM	20.1

* * *

- TARGET OF ASSAY: recombinant HDAC2 (Homo sapiens)
- Sequence (Q92769 whole entry): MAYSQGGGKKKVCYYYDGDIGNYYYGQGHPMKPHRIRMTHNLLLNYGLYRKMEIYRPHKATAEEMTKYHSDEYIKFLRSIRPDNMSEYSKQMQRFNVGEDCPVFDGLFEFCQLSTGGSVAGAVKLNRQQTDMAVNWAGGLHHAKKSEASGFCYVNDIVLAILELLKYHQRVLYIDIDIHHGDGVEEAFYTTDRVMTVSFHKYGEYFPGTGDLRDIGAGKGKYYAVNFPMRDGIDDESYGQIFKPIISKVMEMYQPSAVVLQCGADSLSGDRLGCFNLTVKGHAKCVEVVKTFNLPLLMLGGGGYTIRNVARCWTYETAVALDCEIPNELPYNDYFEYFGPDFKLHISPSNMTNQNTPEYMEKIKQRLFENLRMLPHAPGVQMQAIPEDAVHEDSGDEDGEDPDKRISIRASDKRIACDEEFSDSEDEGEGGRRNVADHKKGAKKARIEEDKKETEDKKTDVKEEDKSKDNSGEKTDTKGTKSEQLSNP
- ASSAY PROCEDURE: Fluorogenic enzymatic assay, recombinant HDAC2
pIC50: −log10 of the molar value.
PARAMETER MEASURED: pIC50

COMPOUND	TARGET OF ASSAY	PARAMETER MEASURED	RECORDED NUMBER
C#CCN(CCCCCC(=O)NO)Cc1c(F)c(F)c(N=[N+]=[N-])c(F)c1F [photomate]	recombinant HDAC2 (Homo sapiens)	pIC50	6.88

* * *

- TARGET OF ASSAY: recombinant HDAC8 (Homo sapiens)
- Sequence (Q9BY41 whole entry): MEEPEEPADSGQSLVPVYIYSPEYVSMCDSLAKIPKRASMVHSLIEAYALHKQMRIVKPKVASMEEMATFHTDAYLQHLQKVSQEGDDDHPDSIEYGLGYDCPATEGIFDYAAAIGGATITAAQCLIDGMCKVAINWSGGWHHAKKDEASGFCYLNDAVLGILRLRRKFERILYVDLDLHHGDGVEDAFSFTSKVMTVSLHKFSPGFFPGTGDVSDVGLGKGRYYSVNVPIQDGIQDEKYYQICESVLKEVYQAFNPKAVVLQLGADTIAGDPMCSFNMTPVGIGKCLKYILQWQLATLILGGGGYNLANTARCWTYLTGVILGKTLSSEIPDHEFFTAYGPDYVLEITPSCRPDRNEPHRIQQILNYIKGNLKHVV
- ASSAY PROCEDURE: Fluorogenic enzymatic assay, recombinant HDAC8
PARAMETER MEASURED: IC50 (nM)

MOLECULE	ENDPOINT UNIT	RECORDED NUMBER
C#CCN(CCCCCC(=O)NO)Cc1c(F)c(F)c(N=[N+]=[N-])c(F)c1F [photomate]	nM	2270

* * *

- TARGET OF ASSAY: recombinant HDAC1 (Homo sapiens, UniProt Q13547)
- Sequence (Q13547 whole entry): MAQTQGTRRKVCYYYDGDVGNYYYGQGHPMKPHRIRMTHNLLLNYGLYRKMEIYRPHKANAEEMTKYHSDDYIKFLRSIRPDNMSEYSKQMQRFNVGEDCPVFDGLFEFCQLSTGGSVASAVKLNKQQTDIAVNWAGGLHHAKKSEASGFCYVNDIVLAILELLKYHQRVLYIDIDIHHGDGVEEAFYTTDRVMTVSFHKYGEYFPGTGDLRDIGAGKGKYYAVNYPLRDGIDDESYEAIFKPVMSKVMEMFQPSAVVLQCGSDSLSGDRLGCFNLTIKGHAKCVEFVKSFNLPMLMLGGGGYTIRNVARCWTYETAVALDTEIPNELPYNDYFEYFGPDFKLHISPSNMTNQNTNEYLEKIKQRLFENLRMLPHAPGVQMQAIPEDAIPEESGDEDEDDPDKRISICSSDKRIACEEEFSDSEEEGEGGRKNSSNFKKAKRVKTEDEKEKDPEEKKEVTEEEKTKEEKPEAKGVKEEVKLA
- ASSAY PROCEDURE: Fluorogenic enzymatic assay, recombinant HDAC1
- Format: biochemical
PARAMETER MEASURED: IC50 (nM)

COMPOUND	TARGET OF ASSAY	ENDPOINT UNIT	RECORDED NUMBER
C#CCN(CCCCCC(=O)NO)Cc1c(F)c(F)c(N=[N+]=[N-])c(F)c1F [photomate]	recombinant HDAC1 (Homo sapiens, UniProt Q13547)	nM	417

* * *

- TARGET OF ASSAY: HDAC3 (Homo sapiens, UniProt O15379)
- Sequence (O15379 whole entry): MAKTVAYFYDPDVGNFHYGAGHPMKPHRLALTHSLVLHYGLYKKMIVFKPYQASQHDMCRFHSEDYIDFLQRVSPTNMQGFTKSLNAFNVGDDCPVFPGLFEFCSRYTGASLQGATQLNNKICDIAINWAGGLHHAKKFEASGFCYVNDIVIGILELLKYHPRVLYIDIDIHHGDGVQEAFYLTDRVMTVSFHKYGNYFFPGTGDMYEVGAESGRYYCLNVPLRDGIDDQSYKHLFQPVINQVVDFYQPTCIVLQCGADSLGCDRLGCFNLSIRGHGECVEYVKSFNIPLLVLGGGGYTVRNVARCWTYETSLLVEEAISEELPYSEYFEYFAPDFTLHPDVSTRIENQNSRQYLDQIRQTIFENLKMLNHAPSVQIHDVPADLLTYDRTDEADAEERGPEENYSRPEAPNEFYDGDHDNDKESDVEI
- Sequence (Q9Y618 395-489 partner limits assumed): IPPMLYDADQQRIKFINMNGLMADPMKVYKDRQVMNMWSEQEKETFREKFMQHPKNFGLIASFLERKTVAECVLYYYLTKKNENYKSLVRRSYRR
- ASSAY PROCEDURE: Fluorogenic enzymatic assay, recombinant HDAC3
pIC50: −log10 of the molar value.

COMPOUND	pIC50
C#CCN(CCCCCC(=O)NO)Cc1c(F)c(F)c(N=[N+]=[N-])c(F)c1F [photomate]	6.96

Taken from paper PMC5693607.
